- protocolSummary: inhibitors of MT1-MMP promoter transcription, cell-based, luciferase reporter, luminescence (AID 618);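 note: actives suppress MT1-MMP promoter-driven transcription so potencies describe inhibitors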
- statedConditions: MT1-MMP promoter luciferase reporter cells
About 540 (0.62%) of roughly 87,000 compounds were called active. The rule behind the calls is not given here. The full list was thinned out, with actives kept by preference. Entries with a potency or affinity are not part of this list.
Log the outcome using a class from TRUE (active), FALSE (inactive)

# example entries with known answers
{"compound": "N#CC1=C(N)Oc2c(ccc3cccnc23)C1c1cccnc1 (stereo unspecified)", "qualitativeLabel": "FALSE"}
{"compound": "COc1ccc(NC(=O)NCCCN2CCc3ccccc3C2)cc1", "qualitativeLabel": "FALSE"}
{"compound": "CCOC(=O)c1cnc(-c2cccc(OC)c2)[nH]c1=O", "qualitativeLabel": "FALSE"}
{"compound": "CCOC(=O)C1CCCn2c1nc1sc3c(c1c2=O)CCCC3 (stereo unspecified)", "qualitativeLabel": "FALSE"}
{"compound": "COc1cc(C2C(C#N)=C(N)Oc3cc(C)oc(=O)c32)cc2c1OCO2 (stereo unspecified)", "qualitativeLabel": "FALSE"}

Recorded call for CN(C)c1ccc2c(c1)OC(N)=C(C#N)C2c1cccc(F)c1 (stereo unspecified) ?
TRUE

Recorded call for CCN(CC)c1ccc2c(c1)OC(N)=C(C#N)C2c1cccnc1 (stereo unspecified) ?
TRUE

Recorded call for N#CC1=C(N)Oc2cc(O)ccc2C1c1ccccc1 (stereo unspecified) ?
FALSE

Recorded call for `Cc1nnc(SCCn2c(N3CCN(C)CC3)nc3c2c(=O)n(C)c(=O)n3C)s1` ?
FALSE

Recorded call for CCC(C)NC(=O)c1cc2cc3ccc(OC)cc3nc2s1 (stereo unspecified) ?
FALSE

Recorded call for COc1cc(C2C(C#N)=C(N)Oc3cc(N(C)C)ccc32)cc2c1OCO2 (stereo unspecified) ?
TRUE

---

- protocolSummary: inhibitors of MT1-MMP promoter transcription, cell-based, luciferase reporter, luminescence (AID 618)
- statedConditions: MT1-MMP promoter luciferase reporter cells
About 540 (0.62%) of roughly 87,000 compounds were called active. No rule for the calls is given here. The sample holds actives, similar compounds and a random draw of the others, so the mix is not that of the screen. Potency and affinity values are given separately.
Log the outcome using a class from active, inactive

# example entries with known answers
{"compound": "CCCSc1nc(C)c(-c2csc(C(C#N)=C3CCCC3)n2)cc1C#N", "qualitativeLabel": "inactive"}
{"compound": "O=C(CCN1C(=O)C2C3C=CC(C3)C2C1=O)N1CCN(c2ccccc2Cl)CC1 (stereo not drawn)", "qualitativeLabel": "inactive"}
{"compound": "COc1ccc(NS(=O)(=O)c2ccc(N)c(C(=O)O)c2)cc1", "qualitativeLabel": "inactive"}
{"compound": "CCN1CCN(C(=O)c2ccc(Cl)c(S(=O)(=O)N3CCOCC3)c2)CC1", "qualitativeLabel": "inactive"}

Field: next compound
Recorded call for CCCCn1c(C(C)NC(=O)c2cccs2)nc2ccccc21 (stereo not drawn) ?
inactive

---

- protocolSummary: inhibitors of MT1-MMP promoter transcription, cell-based, luciferase reporter, luminescence (AID 618);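 note: actives suppress MT1-MMP promoter-driven transcription so potencies describe inhibitors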
- statedConditions: MT1-MMP promoter luciferase reporter cells
Hit rate of the full screen: of about 87,000 compounds, about 540 (0.62%) were called active. How the calls were made is not given here. Shown is part of a subset that was picked to be rich in actives. Potency and affinity values are given separately.
Log the outcome using a class from True = active, False = inactive

{"molecule": "Cc1cc(NC(=O)COC(=O)[C@H](Cc2c[nH]c3ccccc23)NC(=O)c2ccc(F)cc2)no1", "qualitativeLabel": "False"}
{"molecule": "CC(CN1CCOCC1)C(=O)c1ccccc1 (stereo not drawn)", "qualitativeLabel": "False"}
{"molecule": "Cc1ccc2nc(-c3cccnc3)oc2c1", "qualitativeLabel": "False"}
{"molecule": "O=C(N1CCN(c2ccccn2)CC1)N1c2ccccc2Sc2ccccc21", "qualitativeLabel": "True"}
{"molecule": "O=C(NC1CCN(C(=O)N2c3ccccc3Sc3ccccc32)CC1)c1ccco1", "qualitativeLabel": "False"}
{"molecule": "C/C(=C\\C(=O)c1cccnc1)Nc1ccc(C(=O)O)cc1", "qualitativeLabel": "False"}
{"molecule": "CC(CNS(=O)(=O)c1cc(Cl)ccc1Cl)CN(C)C (stereo not drawn)", "qualitativeLabel": "False"}
{"molecule": "O=C1c2ccccc2C(=O)N1CCOCCN1C(=O)c2ccccc2C1=O", "qualitativeLabel": "False"}
{"molecule": "COC(=O)C(C)Sc1ncnc2c1nnn2-c1ccc(F)cc1 (stereo not drawn)", "qualitativeLabel": "False"}
{"molecule": "Nc1cc(N)cc(-c2nc3ccccc3o2)c1", "qualitativeLabel": "False"}

Recorded call for CC1(C)CC(=O)c2cc(C(=O)NC3CCSC3=O)c(=O)n(-c3ccccc3)c2C1 (stereo not drawn) ?
False

Recorded call for COc1ccc(C2NC3=C(CCC3)C3(C#N)C(OC)(OC)N=C(N)C23C#N)cc1 (stereo not drawn) ?
False

Recorded call for O=C(c1ccc(F)cc1)C(CN1CCOCC1)c1ccccc1 (stereo not drawn) ?
True

Recorded call for `COC(=O)c1ccc(OC)c(CSc2nnc(-c3ccc(C(C)(C)C)cc3)o2)c1` ?
False

Recorded call for `CCCCCn1c(=O)[nH]c2cc(C(=O)O)ccc2c1=O` ?
False

Recorded call for `COc1ccc(CCN2CCC(Nc3nc4ccccc4n3Cc3ccc(F)cc3)CC2)cc1` ?
True

Recorded call for `CC(=O)Oc1ccc2oc(C)c(C(=O)N3CCOCC3)c2c1` ?
False

Recorded call for `Nc1cccc(-c2nc3ccccc3[nH]2)c1` ?
False

Recorded call for Cc1nc2sc(C(c3cccs3)N3CCN(c4ccccc4)CC3)c(O)n2n1 (stereo not drawn) ?
False

Recorded call for `O=C(c1ccco1)N1c2ccccc2Sc2ccccc21` ?
False

Recorded call for `Nc1ccc2nc(-c3ccccc3)[nH]c2c1` ?
False

Recorded call for `CCOC(=O)c1[nH]c(C)c(CN(Cc2ccco2)C(=O)C(F)(F)F)c1C` ?
False

Recorded call for `O=C(CN1CCN(c2ccccn2)CC1)N1c2ccccc2Sc2ccc(C(F)(F)F)cc21` ?
False

---

- protocolSummary: inhibitors of MT1-MMP promoter transcription, cell-based, luciferase reporter, luminescence (AID 618);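 note: actives suppress MT1-MMP promoter-driven transcription so potencies describe inhibitors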
- statedConditions: MT1-MMP promoter luciferase reporter cells
Hit rate of the full screen: of about 87,000 compounds, about 540 (0.62%) were called active. The rule behind the calls is not given here. The sample holds actives, similar compounds and a random draw of the others, so the mix is not that of the screen. Results with a measured potency or affinity are listed apart.
Log the outcome using a class from label 1 = active, label 0 = inactive

# example entries with known answers
{"molecule": "O=C1CCC(=O)N1CCCCCc1nc(-c2ccccc2)no1", "qualitativeLabel": "label 0"}
{"molecule": "CSc1ccc2c(c1)N(CCC1CCCCN1C)c1ccccc1S2 (stereo unspecified)", "qualitativeLabel": "label 1"}
{"molecule": "CCOc1ccccc1NC(=O)Cn1nnc(C(=O)NCc2ccco2)c1N", "qualitativeLabel": "label 0"}
{"molecule": "Cc1ccc(C(=O)Nc2cc(Cl)ccc2N2CCCCC2)s1", "qualitativeLabel": "label 0"}
{"molecule": "Cc1cc(C)n(C(=O)CN2C(=O)c3ccccc3C2=O)n1", "qualitativeLabel": "label 0"}

Field: next molecule
Recorded call for `O=C(COc1c(F)c(F)c(C(F)(F)F)c(F)c1F)Nc1ccc(N2CCOCC2)c(Cl)c1` ?
label 0

---

- protocolSummary: inhibitors of MT1-MMP promoter transcription, cell-based, luciferase reporter, luminescence (AID 618);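 note: actives suppress MT1-MMP promoter-driven transcription so potencies describe inhibitors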
- statedConditions: MT1-MMP promoter luciferase reporter cells
Out of some 87,000 compounds screened, about 540 (0.62%) were called active. The sample as a whole holds a higher share of actives than the screen did. Potency and affinity values are given separately.
measuredProperty: outcome

Below, each entry is followed by its recorded outcome result.
{"compound": "Cc1cc(NC(=O)c2ccc(Cl)cc2)no1", "outcome": "inactive"}
{"compound": "Cc1cc(C(=O)Nc2nc3c(s2)CCCC3)no1", "outcome": "inactive"}
{"compound": "Cc1nc2ccc3nc(NC(=O)c4ccc5c(c4)OCCO5)sc3c2s1", "outcome": "inactive"}
{"compound": "O=C(Nc1nc2c(s1)CCCC2)c1ccc(Br)o1", "outcome": "inactive"}
{"compound": "CC1Cc2ccccc2N1c1nc(C2CC2)nc2c1nnn2Cc1ccccc1 (configuration not stated)", "outcome": "inactive"}
{"compound": "Cc1nc2c(ccc3nc(NC(=O)c4ccc5c(c4)OCCO5)sc32)s1", "outcome": "active"}

Retrieve outcome measured for `CCOc1ccc(NC(=O)CCCc2cc(-c3ccc(OCC)cc3)on2)cc1` and print it.
inactive

Retrieve outcome measured for `Cc1cc(NC(=O)c2ccc3c(c2)OCO3)no1` and print it.
inactive

Retrieve outcome measured for CC1CCc2nc(NC(=O)C3CC3)sc2C1 (configuration not stated) and print it.
inactive

Retrieve outcome measured for `Cc1cc(NC(=O)c2ccc3c(c2)OCCO3)no1` and print it.
active

Retrieve outcome measured for `CC(=O)Nc1ccc(C(=O)CSc2nnnn2C(C)C)cc1` and print it.
inactive

Retrieve outcome measured for `CCN(CC)CCCNC(=O)c1cc(-c2ccc(Cl)cc2)on1` and print it.
inactive
